experiment: chemical genetic growth profiling, strain panel (AID 1159580);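 also: tested at 20 µM; growth read once vehicle control cultures reached saturation at 30 °C; 1 = growth at the plate median or of vehicle wells; lower values mean less growth of the strain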; details: S. cerevisiae deletion strains, growth OD, locus YCL016C, strain dcc1, hits give low values
The campaign covered roughly 5,500 compounds. About 2,000 (36%) were called active. Roughly 18% stayed inconclusive and do not appear here. This is one part of the list.

COMPOUND: C=CCc1ccc(O)c(OC)c1
normalized growth: 1.01

COMPOUND: CN(C)CCN(Cc1cccs1)c1ccccn1
normalized growth: 1.01

COMPOUND: CCC[C@H](N[C@@H](C)C(=O)N1[C@H](C(=O)O)C[C@@H]2CCCC[C@@H]21)C(=O)OCC
normalized growth: 1.01

COMPOUND: COC(=O)[C@@H]1OC(=O)C2OC23[C@@]1(C)CCC1[C@]2(C)C(C[C@H](O)[C@]13C)C(C)(C)[C@H](OC(C)=O)C[C@@H]2OC(C)=O (some centres not stated)
normalized growth: 1.02

COMPOUND: CCCCCCCCCCC[C@@H](C[C@H]1OC(=O)[C@H]1CCCCCC)OC(=O)[C@@H](CC(C)C)NC=O
normalized growth: 1.01

COMPOUND: C#CCCCCCCCCCCCc1ccco1
normalized growth: 0.999

COMPOUND: C=CCc1ccc(OC)cc1
normalized growth: 1

COMPOUND: COc1cc([C@@H]2c3cc4c(cc3[C@@H](O)C3COC(=O)C32)OCO4)cc(OC)c1O (some centres not stated)
normalized growth: 0.981

COMPOUND: O=C(/C=C/c1ccc(O)c(O)c1)OCCc1ccccc1
normalized growth: 0.774

COMPOUND: C=CCCCCCCCCCCCc1ccco1
normalized growth: 0.861

COMPOUND: CC1(C)S[C@@H]2[C@H](NC(=O)[C@H](N)c3ccccc3)C(=O)N2[C@H]1C(=O)O
normalized growth: 0.942

COMPOUND: CCCCCCCCCCCCCc1ccco1
normalized growth: 0.973

COMPOUND: COc1ccc2c(c1)OC/C(=C\c1ccc(OC)c(O)c1)C2=O
normalized growth: 0.881

COMPOUND: C[n+]1c2cc(N)ccc2cc2ccc(N)cc21
normalized growth: 0.331

COMPOUND: O=C(c1ccc(OCCN2CCCCC2)cc1)c1c(-c2ccc(O)cc2)sc2cc(O)ccc12
normalized growth: 1

COMPOUND: O=S(=O)(O)c1cc(N=C=S)ccc1/C=C/c1ccc(N=C=S)cc1S(=O)(=O)O
normalized growth: 1.03

COMPOUND: COc1cc2nc(N(C)CCCNC(=O)C3CCCO3)nc(N)c2cc1OC (configuration not stated)
normalized growth: 1

COMPOUND: COc1ccc(C2CNC(=O)C2)cc1OC1CCCC1 (configuration not stated)
normalized growth: 1.01

COMPOUND: COc1ccc2c(c1)OC/C(=C/c1ccc(OC)c(OC)c1)C2=O
normalized growth: 0.856

COMPOUND: COc1ccc(C(=O)O)cc1OC
normalized growth: 1

COMPOUND: O=C(/C=C/c1ccc(O)c(O)c1)OC(Cc1ccc(O)c(O)c1)C(=O)O (configuration not stated)
normalized growth: 1.05

COMPOUND: CC[C@]1(O)CC2CN(CCc3c([nH]c4ccccc34)[C@@](C(=O)OC)(c3cc4c(cc3OC)N(C)[C@H]3[C@@](O)(C(=O)OC)[C@H](OC(C)=O)[C@]5(CC)C=CCN6CC[C@]43[C@@H]65)C2)C1 (some centres not stated)
normalized growth: 1.01
